# Tested on: CT26 cells
# ASSAY: MTT cytotoxicity assay, CT26
# Type: cell-based
# CONDITIONS: Mus musculus; CT26, 24 h incubation
pIC50: −log10 of the molar value.
MEASUREMENT TYPE: pIC50

Hey, CT26 cells data for O=c1[nH]cc(F)c(=O)[nH]1 : pIC50 came out at ~4.15

====

# Tested on: CT26-FL3 cells
# ASSAY: MTT cytotoxicity assay
# Type: cell-based, mouse
# CONDITIONS: 24 h incubation; read-out: IC50 (50% cell growth inhibition)
MEASUREMENT TYPE: pIC50
Please note pIC50 is a logarithmic value: minus log10 of concentration in mol/L. Answer with that number alone.

Hey, CT26-FL3 cells data for O=C1[O][Pt]2([NH][C@@H]3CCCC[C@H]3[NH]2)[O]C1=O : pIC50 came out at 4.62

The measurements presented in this section are drawn from patent US20220378936A1.
